All figures here come from ChEMBL document CHEMBL1201862.

Test system: HOP-92
Procedure Summary: NCI tumour cell line growth inhibition, 48 h
Calls of active or inactive are those of the source. No stated cut-off is given here; in the data, active = GI50 up to about 1.1 µM and inactive = higher.

Compound: Cc1cc(C)c([O-])c(-[n+]2c(-c3ccccc3)cc(-c3ccccc3)cc2-c2ccccc2)c1
GI50: 1.73 µM (inactive)
--
Compound: CC1=C(Nc2c(C)cc(O)cc2O)C(=O)C=c2oc3c(c21)C(C)=C(Nc1c(C)cc(O)cc1O)C(=O)C=3
GI50: > 100 µM (inactive)
--
Compound: O=C=NCCCCCCN1C(=O)N2C(c3ccccc3)N(CCCCCCN=C=O)C(=O)N2C1c1ccccc1 (stereo not given)
GI50: > 100 µM (inactive)
--
Compound: CN(C)c1ccc(C2CC(=O)C(C#N)=C(c3ccccc3)NN2C)cc1 (stereo not given)
GI50: 21.1 µM (inactive)
--
Compound: COC(=O)C1(C(=O)OC)CC2=C(S(=O)(=O)c3ccccc3)C[C@H](S(=O)(=O)c3ccccc3)[C@H]2C1
GI50: 19.6 µM (inactive)
